system: bleomycin-induced pulmonary fibrosis model; assay: Advanced pulmonary fibrosis: bleomycin-induced model, dosing from three weeks after modelling; assay type: in vivo, C57BL/6 mice; conditions: advanced pulmonary fibrosis; lung tissue HE staining; 120 mg/kg/d intragastric, 14 days, from three weeks after model
Item-by-item account of Ashcroft scores
// print number alone

Example results:
[
  {
    "Molecule": "CC(C)Oc1ncnc2c1N(C(C)C)CN2C(C)C",
    "Tested On": "bleomycin-induced pulmonary fibrosis model",
    "Observed Value": 1.16
  },
  {
    "Molecule": "O=c1[nH]cnc2[nH]cnc12 [Hypoxanthine analogue A, reference compound]",
    "Tested On": "bleomycin-induced pulmonary fibrosis model",
    "Observed Value": 5.88
  },
  {
    "Molecule": "CCC(=O)Oc1ncnc2c1ncn2C(C)C",
    "Tested On": "bleomycin-induced pulmonary fibrosis model",
    "Observed Value": 1.13
  },
  {
    "Molecule": "CC(C)Oc1ncnc2[nH]cnc12",
    "Tested On": "bleomycin-induced pulmonary fibrosis model",
    "Observed Value": 0.95
  },
  {
    "Molecule": "CC(C)Oc1ncnc2c1ncn2C [Hypoxanthine analogue B, reference compound]",
    "Tested On": "bleomycin-induced pulmonary fibrosis model",
    "Observed Value": 6.01
  },
  {
    "Molecule": "CC(C)n1cnc2nc[nH]c(=O)c21",
    "Tested On": "bleomycin-induced pulmonary fibrosis model",
    "Observed Value": 1.19
  }
]

Request: Let me know recorded Ashcroft scores for CC(C)Oc1ncnc2nc[nH]c12 , thanks.
Result: 1.22

Request: Let me know recorded Ashcroft scores for CC(C)n1cnc2c(=O)[nH]cnc21 , thanks.
Result: 0.88

Request: Let me know recorded Ashcroft scores for CC(C)Oc1ncnc2c1ncn2C(C)C , thanks.
Result: 0.87
